Data origin: patent US20240199623A1

# ASSAY_TARGET: UniProtKB P13569
# Sequence (P13569 whole entry): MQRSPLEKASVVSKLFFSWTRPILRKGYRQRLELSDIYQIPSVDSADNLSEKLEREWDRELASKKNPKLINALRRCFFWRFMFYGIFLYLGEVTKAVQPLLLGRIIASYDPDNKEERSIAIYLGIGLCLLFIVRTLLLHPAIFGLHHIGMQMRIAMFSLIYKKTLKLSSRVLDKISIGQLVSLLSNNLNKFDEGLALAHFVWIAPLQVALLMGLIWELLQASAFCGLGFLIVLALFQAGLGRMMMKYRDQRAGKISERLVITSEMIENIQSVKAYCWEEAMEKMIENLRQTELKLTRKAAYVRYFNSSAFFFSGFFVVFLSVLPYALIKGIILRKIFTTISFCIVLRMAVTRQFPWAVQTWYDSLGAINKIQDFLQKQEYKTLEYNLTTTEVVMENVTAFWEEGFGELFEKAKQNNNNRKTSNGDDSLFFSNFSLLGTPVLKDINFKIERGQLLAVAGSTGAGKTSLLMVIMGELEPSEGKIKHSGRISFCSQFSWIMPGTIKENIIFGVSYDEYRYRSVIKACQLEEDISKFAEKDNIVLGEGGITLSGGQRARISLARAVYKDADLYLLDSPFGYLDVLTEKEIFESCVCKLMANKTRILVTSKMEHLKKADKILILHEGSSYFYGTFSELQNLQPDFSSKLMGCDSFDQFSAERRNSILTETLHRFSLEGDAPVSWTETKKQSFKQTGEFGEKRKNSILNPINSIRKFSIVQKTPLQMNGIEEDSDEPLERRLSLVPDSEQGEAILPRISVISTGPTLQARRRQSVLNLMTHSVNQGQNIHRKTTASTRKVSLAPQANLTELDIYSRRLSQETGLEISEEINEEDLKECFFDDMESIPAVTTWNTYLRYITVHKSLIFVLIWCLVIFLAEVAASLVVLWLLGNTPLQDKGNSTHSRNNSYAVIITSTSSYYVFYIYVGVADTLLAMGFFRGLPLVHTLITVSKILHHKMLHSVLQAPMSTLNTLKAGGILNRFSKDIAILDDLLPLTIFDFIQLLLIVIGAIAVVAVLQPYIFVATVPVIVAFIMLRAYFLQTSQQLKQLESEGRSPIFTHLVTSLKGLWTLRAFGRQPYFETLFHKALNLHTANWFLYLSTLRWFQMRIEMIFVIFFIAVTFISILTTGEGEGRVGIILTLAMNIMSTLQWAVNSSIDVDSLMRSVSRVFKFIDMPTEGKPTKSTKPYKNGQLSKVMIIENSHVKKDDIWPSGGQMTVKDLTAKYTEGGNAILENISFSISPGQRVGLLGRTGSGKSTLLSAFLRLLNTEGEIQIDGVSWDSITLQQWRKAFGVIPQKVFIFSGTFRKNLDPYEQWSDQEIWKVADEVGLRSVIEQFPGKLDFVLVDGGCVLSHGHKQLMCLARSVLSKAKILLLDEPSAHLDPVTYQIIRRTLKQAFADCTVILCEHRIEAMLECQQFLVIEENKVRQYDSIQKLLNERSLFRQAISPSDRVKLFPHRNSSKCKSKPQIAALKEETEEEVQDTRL
# EXPERIMENT_SUMMARY: Cell-based YFP assay
# Set-up: expressed in transfected cells; host or cells: CHO-K1 (Chinese hamster ovary)
# MEASUREMENT_CONDITIONS: CHO-K1 cells expressing human wild type-CFTR and YFP-H148Q/I152L; forskolin 20 μM = 100% activity; read-out: Cell-based YFP Assay (EC50) Concentration Range
EC50 for assorted molecules

| MOLECULAR_STRING | EC50 |
| --- | --- |
| CCOC(=O)CNC(=O)c1cc2nccc(-c3ccc(OC)c(OC)c3)n2n1 | 200 to 2000 nM |
| COc1ccc(-c2ccnc3cc(C(=O)Nc4ccc(C(=O)N5CCOCC5)nc4)nn23)cc1OC | ≥ 2000 nM |
| COC(=O)c1ccc(NC(=O)Nc2cc3nccc(-c4ccc(OC)c(OC)c4)n3n2)cc1 | 200 to 2000 nM |
| COc1ccc(-c2ccnc3cc(C(=O)N4CCN(Cc5c(F)cccc5F)CC4)nn23)cc1OC | < 200 nM |
| COc1ccc(-c2ccnc3cc(C(=O)Nc4ccc(OCC(=O)O)cc4)nn23)cc1OC | ≥ 2000 nM |
| COc1ccc(-c2ccnc3cc(C(=O)N4CCN(C(=O)OC(C)(C)C)CC4)nn23)cc1OC | 200 to 2000 nM |
| COc1ccc(-c2ccnc3cc(C(=O)N[C@H]4CC[C@H](C(=O)NCCCN5CCOCC5)CC4)nn23)cc1OC | ≥ 2000 nM |
| CCOc1ccc(NC(=O)c2cc3nccc(-c4ccc(F)c(Cl)c4)n3n2)cc1 | ≥ 2000 nM |
| COc1ccc(-c2ccnc3cc(C(=O)N4CCN(C(=O)c5ccccc5)[C@@H](C5CC5)C4)nn23)cc1OC | < 200 nM |
| CCOc1ccc(NC(=O)c2cc3nccc(-c4cccc(OC)c4)n3n2)cc1 | ≥ 2000 nM |
| COc1ccc(-c2ccnc3cc(C(=O)Nc4ccc(C(=O)N5CCOCC5)c(O)c4)nn23)cc1OC | < 200 nM |
| COc1ccc(-c2ccnc3cc(C(=O)N[C@H]4CC[C@H](C(=O)OCCCN5CCOCC5)CC4)nn23)cc1OC | 200 to 2000 nM |
| COc1ccc(-c2ccnc3cc(C(=O)Nc4ccc(N5CCOCC5)cc4F)nn23)cc1OC | < 200 nM |
| COc1ccc(-c2ccnc3cc(C(=O)Nc4ccc(C(=O)O)cc4F)nn23)cc1OC | < 200 nM |
| COc1ccc(-c2ccnc3cc(C(=O)N4CCN(C(=O)CO)CC4)nn23)cc1OC | ≥ 2000 nM |
| COc1ccc(-c2ccnc3cc(C(=O)N4CCN(C(=O)OC(C)(C)C)[C@@H](C)C4)nn23)cc1OC | < 200 nM |
| CCCCCCCCCCOC(=O)[C@H]1CC[C@H](NC(=O)c2cc3nccc(-c4ccc(OC)c(OC)c4)n3n2)CC1 | ≥ 2000 nM |
| COc1ccc(-c2ccnc3cc(C(=O)NC45CC(C(N)=O)(C4)C5)nn23)cc1OC | ≥ 2000 nM |
| COc1ccc(-c2ccnc3cc(C(=O)Nc4ccc(N5CCC(=O)CC5)cc4)nn23)cc1OC | < 200 nM |
| COc1ccc(-c2ccnc3cc(C(=O)Nc4ccc(C(=O)OCCCN5CCN(C)CC5)cc4)nn23)cc1OC | 200 to 2000 nM |
| CCOc1ccc(NC(=O)c2cc3nccc(-c4cccc(C)c4)n3n2)cc1 | ≥ 2000 nM |
